experiment: Toxicity liver stage against HepG2, at 10uM; assay type: cell-based; set-up: test concentration 10 uM, cell line HepG2-A16-CD81EGFP; conditions: human, HepG2-A16-CD81EGFP cells; read-out: INHIBITION
Give cytotoxicity at 10 µM for every item shown.
One number for each entry, in %.

| compound | cytotoxicity at 10 µM (%) |
| --- | --- |
| Cc1ccc(CN2Cc3cnn(C)c3C(COCC3CC3)C2)o1 (centres undefined) | -78.5 |

Please supply cytotoxicity at 10 µM for each of the following items, keeping them in order.
1. O=C(N[C@H]1CCCC[C@@H]1O)c1ccc(-c2nc3ccccc3[nH]2)cc1
2. Cc1cc2c(cc1C)C(NCc1nnc3n1CCCCC3)CCCO2 (centres undefined)
3. Cn1cc(CN2CCCC(CCc3ccccc3C(F)(F)F)C2)cn1 (centres undefined)
4. CCN(CC)c1ccc(C(=O)N2C[C@H]3CC[C@@H](C2)N(CCOC)C3)cc1
5. Nc1nc(C2CCN(C(=O)c3cscn3)CC2)cs1
6. CC(=O)Cn1c(C)cc(=O)c2cc(F)ccc21
7. N#CC1C(=O)Nc2c(cnn2C2CCCC2)C12CCCCC2 (centres undefined)

[-1.43, 0.873, -4.24, -12.3, 3.32, -4.46, 8.46]

* * *

assay: Toxicity liver stage against HepG2, at 10uM; format: cell-based; parameters: test concentration 10 uM, cell line HepG2-A16-CD81EGFP; conditions: human, HepG2-A16-CD81EGFP cells; read-out: INHIBITION
Give cytotoxicity at 10 µM for every item shown.
Answers are plain numbers, in %.

Please review the entries below; each comes with its answer.
| compound | measured metric | units label | observed |
| --- | --- | --- | --- |
| CCOc1ccc(C(=O)NC2CCN(c3ncccn3)CC2)cc1C | cytotoxicity at 10 µM | % | -10.1 |
| CN(CC1COc2ccccc2O1)C(=O)C1=NN(C)C(=O)CC1 (stereo not drawn) | cytotoxicity at 10 µM | % | -52.2 |
| CO[C@@H]1CC[C@H]2[C@H]1OCCN2CC1CCOCC1 | cytotoxicity at 10 µM | % | -20.3 |

Please supply cytotoxicity at 10 µM for each of the following items, keeping them in order.
1. Cc1cc(N2CCOCC2)ccc1NC(C)c1nc(C(C)(C)C)no1 (stereo not drawn)
2. Cc1csc([C@@H]2C[C@H]3CN(c4ncc(F)cn4)C[C@H]3O2)n1

1. -12.7
2. 6.88

Please supply cytotoxicity at 10 µM for each of the following items, keeping them in order.
1. CN(Cc1cccs1)C(=O)c1ccc(=O)n(C)c1
2. COc1cc(C#N)ccc1OCC(=O)N(C1CC1)C(C)c1ccco1 (stereo not drawn)
3. CCCS(=O)(=O)CC(=O)Nc1ccsc1

1. -13.2
2. 1.18
3. -5.61

* * *

assay: Toxicity liver stage against HepG2, at 10uM; format: cell-based; parameters: test concentration 10 uM, cell line HepG2-A16-CD81EGFP; details: human, HepG2-A16-CD81EGFP cells; read-out: INHIBITION
Give cytotoxicity at 10 µM for every item shown.

Please review the entries below; each comes with its answer.
| compound | cytotoxicity at 10 µM |
| --- | --- |
| CC(C)c1ccc(OCCC(=O)N2CCC(C(=O)N(C)C)CC2)cc1 | -17.5% |
| N#Cc1cc2cc(Cl)cnc2nc1O | 4.29% |
| CCn1c(C)nnc1SCCNc1nc(C)nc2ncccc12 | 0.194% |
| CCCN(C(=O)CN1CCN(CCO)CC1)C1=CCCCC1 | 6.45% |
| O=C(c1cccnc1)N1CCN2C[C@H](OCc3ccccc3)C[C@H]2C1 | -75.2% |
| CN1CCN(Cc2c(-c3ccco3)[nH]c3ncccc23)CC1 | 5.63% |
| CCNc1cc2c(nn1)CCN(C(=O)c1cccc3c1OCCO3)C2 | -8.42% |
| O=C(NC1CCC1)[C@@H]1C[C@@H]2CCN(Cc3cccs3)C[C@@H]2O1 | 5.38% |

Please supply cytotoxicity at 10 µM for each of the following items, keeping them in order.
1. N[C@@H]1c2ccccc2C2(CCN(c3ncccc3C(F)(F)F)CC2)[C@H]1O
2. O=C(CSC1CCc2ccccc2NC1=O)NCc1cccs1 (stereo unspecified)
3. COCCN1CCO[C@@H]2CN(Cc3ccc(C)s3)C[C@@H]2C1

1: 0.106%; 2: -2%; 3: -8.81%

Please supply cytotoxicity at 10 µM for each of the following items, keeping them in order.
1. CCCC(NC(=O)c1cc(C)ccc1C)c1nnn[nH]1 (stereo unspecified)
2. O=C(CN1CCOc2ccccc2C1)N1Cc2cnn(CCO)c2C1

1. -9.11%
2. -3.24%

Please supply cytotoxicity at 10 µM for each of the following items, keeping them in order.
1. Cc1n[nH]c(CN2CCN(C(=O)C3CCC3)[C@@H]3CS(=O)(=O)C[C@@H]32)n1
2. CN(C)C(=O)N1Cc2ccccc2C2(CCNCC2)C1
3. O=C(c1cccnc1)N1C[C@@H]2OCC(=O)N(Cc3cccnc3)[C@@H]2C1
4. O=C(NC[C@]12COC[C@H]1CN(Cc1ccncc1)C2)c1ccco1

["-10.8%", "1.26%", "2.08%", "8.75%"]
